- target.desc: NRP-1 recombinant chimeric protein ( (recombinant human/rat NRP-1 …, UniProt O14786 22-856))
- Sequence (O14786 22-856, change not shown): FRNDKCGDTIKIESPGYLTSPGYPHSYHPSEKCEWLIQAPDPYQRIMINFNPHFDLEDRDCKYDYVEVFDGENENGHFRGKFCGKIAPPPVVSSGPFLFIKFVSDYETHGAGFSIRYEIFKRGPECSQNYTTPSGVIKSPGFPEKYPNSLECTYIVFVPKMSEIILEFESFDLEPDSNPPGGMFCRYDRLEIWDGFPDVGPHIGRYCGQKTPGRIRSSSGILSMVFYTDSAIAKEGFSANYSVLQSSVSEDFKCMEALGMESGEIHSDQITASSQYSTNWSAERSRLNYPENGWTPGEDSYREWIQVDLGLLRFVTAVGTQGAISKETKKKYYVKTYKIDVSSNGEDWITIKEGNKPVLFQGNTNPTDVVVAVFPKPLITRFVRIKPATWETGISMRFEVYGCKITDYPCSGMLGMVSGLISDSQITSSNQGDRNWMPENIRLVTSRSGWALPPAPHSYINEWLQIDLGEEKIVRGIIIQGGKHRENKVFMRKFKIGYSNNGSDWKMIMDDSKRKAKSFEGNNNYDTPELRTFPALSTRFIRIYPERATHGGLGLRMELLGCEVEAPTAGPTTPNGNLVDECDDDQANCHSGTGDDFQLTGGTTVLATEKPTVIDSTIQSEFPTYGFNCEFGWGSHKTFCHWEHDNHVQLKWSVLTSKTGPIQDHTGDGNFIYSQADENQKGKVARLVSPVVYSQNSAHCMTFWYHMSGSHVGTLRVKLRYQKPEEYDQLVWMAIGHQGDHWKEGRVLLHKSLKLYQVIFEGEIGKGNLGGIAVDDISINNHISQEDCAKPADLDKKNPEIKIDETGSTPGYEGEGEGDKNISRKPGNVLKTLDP
- test.details: ELISA; competition with biotinylated VEGF-165
Primed or numbered codes have the meaning given here. Where no end group is shown, it is not given here. Cy5 = Cy5 fluorophore (fluorescent dye); NODAGA′ = chelator
parameter: IC50 (nM)

[[record]]
binder = "KDKPPR [KDKPPR peptide]"
parameter = "IC50"
reported_measurement = 2000

[[record]]
binder = "{NODAGA′}-K(Cy5)DKPPR (also: NODAGA complexed with natGa) [^natGa-NODAGA-K(Cy5)DKPPR]"
parameter = "IC50"
reported_measurement = 100

